Where do these numbers come from? They come from paper PMC5691054.

test system: MO7e cells; assay: 6MP cytotoxicity in MO7e cells and CRISPR knock-outs; format: cell-based, Human; details: Homo sapiens, Mo7e, 96 h, MO7e MPP1 KO; Fig. 4f, CellTiter Glo, triplicate
Quantity Kind: IC50 (µM)

Cpd Smiles | Test System | Unit Tag | Value
Sc1ncnc2nc[nH]c12 | MO7e cells | µM | 27.7

====

test: Antimycin A cytotoxicity in MO7e and ABCC4 KO MO7e cells; type: cell-based, Human; conditions: human, MO7e cells; MO7e; 0.01 to 1000 μM, CellTiter Glo, triplicate

Molecule | IC50 / nM
CCCCCC[C@H]1C(=O)O[C@H](C)[C@H](NC(=O)c2cccc(NC=O)c2O)C(=O)O[C@@H](C)[C@@H]1OC(=O)CC(C)C [Antimycin A] | 2200

====

test: Antimycin A cytotoxicity in MO7e and ABCC4 KO MO7e cells; format: cell-based, Human; conditions: human, MO7e ABCC4 KO cells; MO7e ABCC4 KO; 0.01 to 1000 μM, CellTiter Glo, triplicate

Compound | IC50
CCCCCC[C@H]1C(=O)O[C@H](C)[C@H](NC(=O)c2cccc(NC=O)c2O)C(=O)O[C@@H](C)[C@@H]1OC(=O)CC(C)C [Antimycin A] | 1700 nM

====

tested on: HEK293 cells; assay: Etoposide cytotoxicity in transfected HEK293 cells; type: cell-based, Human; conditions: Homo sapiens, HEK293, HEK293 ABCC4ΔC; triplicate
Quantity Kind: IC50 (nM)

Compound | Value
COc1cc([C@@H]2c3cc4c(cc3[C@@H](O[C@@H]3O[C@@H]5CO[C@@H](C)O[C@H]5[C@H](O)[C@H]3O)[C@H]3COC(=O)[C@H]23)OCO4)cc(OC)c1O [Etoposide, etoposide] | 1500
